Entry source: patent US20240400638A1

I'd be grateful if you could share measured EMax, OVCAR 5 cells (cAMP) for these entries.
Target: T1, human RXFP1 (human, UniProt Q9HBX9 1-757)
T1 sequence (looked up): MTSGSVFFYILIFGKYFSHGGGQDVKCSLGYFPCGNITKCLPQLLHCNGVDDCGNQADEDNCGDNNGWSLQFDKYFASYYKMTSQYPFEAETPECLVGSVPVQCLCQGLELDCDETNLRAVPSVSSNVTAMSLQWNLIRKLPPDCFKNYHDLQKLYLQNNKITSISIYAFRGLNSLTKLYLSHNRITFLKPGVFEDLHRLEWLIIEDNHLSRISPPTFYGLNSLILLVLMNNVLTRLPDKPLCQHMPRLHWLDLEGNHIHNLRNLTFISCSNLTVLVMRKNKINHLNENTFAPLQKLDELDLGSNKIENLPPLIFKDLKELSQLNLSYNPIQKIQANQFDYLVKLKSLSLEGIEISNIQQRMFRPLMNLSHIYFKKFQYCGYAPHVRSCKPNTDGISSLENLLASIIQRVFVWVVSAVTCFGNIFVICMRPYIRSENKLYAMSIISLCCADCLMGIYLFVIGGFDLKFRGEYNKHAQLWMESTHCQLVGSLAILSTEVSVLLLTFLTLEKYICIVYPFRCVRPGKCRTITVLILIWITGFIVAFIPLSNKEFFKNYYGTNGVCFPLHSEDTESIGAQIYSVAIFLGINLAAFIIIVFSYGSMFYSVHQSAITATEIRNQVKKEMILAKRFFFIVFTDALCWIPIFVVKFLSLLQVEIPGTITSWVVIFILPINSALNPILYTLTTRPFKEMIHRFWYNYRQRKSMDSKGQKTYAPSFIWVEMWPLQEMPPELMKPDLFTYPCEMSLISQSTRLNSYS
Assay: cell-based or functional assay
Numbered stars: 1 amine (or outer) side, 2 acyl side, 3 side chain; on linkers, the order of the positions; unused ones are H or OH. Square brackets hold non-standard residues; d marks the D form. Side chains are listed from the residue outwards. * marks the point of attachment. TTDS = 4-[3-[2-[2-(3-aminopropoxy)ethoxy]ethoxy]propylamino]-4-oxo-butanoyl; γGlu = O=C(O)[C@H](CCC(=O)[*:2])N[*:1]; Stearoyl = CCCCCCCCCCCCCCCCCC(=O)*; Palmitoyl = CCCCCCCCCCCCCCCC(=O)*; αMeK = C[C@](N)(CCCCN)C(=O)O; Aib = CC(C)(N)C(=O)O
Give the number; % is assumed, so skip it.

Identify measured EMax, OVCAR 5 cells (cAMP) corresponding to Ac-LEGREKVRAK(Ac)I[Aib][Aib]EGK([TTDS-TTDS-γGlu-γGlu-γGlu-Stearoyl])STWS[Aib]RKK(Ac)-NH2 [Relaxin peptide analogue of SEQ ID NO: 6]
95

Identify the reported EMax, OVCAR 5 cells (cAMP) for the following entry. Ac-LEGRERVRAK(Ac)I[Aib][Aib]EGK([TTDS-TTDS-TTDS-γGlu-γGlu-γGlu-Palmitoyl])STFS[αMeK]RAK(Ac)-NH2 [Relaxin peptide analogue of SEQ ID NO: 27]
98
